- ASSAYED_TARGET: Bcl-xL, Q07817
- Sequence (Q07817 1-209): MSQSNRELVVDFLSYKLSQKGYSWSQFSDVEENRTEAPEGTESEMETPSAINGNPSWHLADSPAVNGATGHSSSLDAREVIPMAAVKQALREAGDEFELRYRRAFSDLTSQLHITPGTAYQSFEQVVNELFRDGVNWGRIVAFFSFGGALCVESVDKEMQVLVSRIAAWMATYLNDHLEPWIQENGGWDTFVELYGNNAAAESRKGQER
- METHOD_NOTES: peptide SPOT array, c-Myc-tagged receptor at 1 uM or 100 nM, anti-c-Myc-Cy3
OUTCOME_MEASURE: SPOT signal as a fraction of Bim BH3's signal on the same receptor and array

Guide cases for SPOT signal as a fraction of Bim BH3's signal on the same receptor and array, answers given:
- BINDER: "SKEVAILCSFDLGLGDSCFNTQLLSI [MFSD11]"
  OBSERVED_RESULT: 0.08
- BINDER: "GSPDSMFGISDAVLGDLNQDGFPDIA [ITGA7]"
  OBSERVED_RESULT: 0.07

P. PHQFDGVPDKDIQAAYQVKYNSKKMK [EVI5]
Q. SGLPGLSSVDINNFGDSINESEGIPL [MKI67]
[in] // pick min by SPOT signal as a fraction of Bim BH3's signal on the same receptor and array: P , Q Indicate which entry you chose by stating its label.
[out] Q
